# test: soluble on expression in E. coli; label from the status in PepcDB or PDB records
measured.property: soluble on expression in E. coli

INSERT INTO results (sequence_input, measured_property, readout_value) VALUES
  ('MSLFKEERTMTNYTVDTLNLGKFITESGEVIDNLRLRYEHVGYHGQPLVVVCHALTGNHLTYGTDDYPGWWREIIDGGYIPIHDYQFLTFDVIGSPFGSSSPLNDPHFPKKLTLRDIVRANERGIQALGYDKINILIGGSLGGMQAMELLYNQQFEVDKAIILAATSRTSSYSRAFNEIARQAIHLGGKEGLSIARQLGFLTYRSSKSYDERFTPDEVVAYQQHQGNKFKEHFDLNCYLTLLDVLDSHNIDRGRTDVTHIFKNLETKVLTMGFIDDLLYPDDQVRALGERFKYHRHFFVPDNVGHDGFLLNFSTWAPNLYHFLNLKHFKRKEGHHHHHH', 'soluble on expression in E. coli', 'soluble'),
  ('MKDYIRSVLDVVAESPFVPLETHARKGVLAVEKLSEAMEAYCTGNQALLDERTEEIDVLEHEADKIKQKIRASIPSSVRLPVNKKDLLSFLKQQDSIADFAQASAYWMTLRPCKDLPDEIKEGFLELMATSLKTARMYDRLVGELYKLLATSFSKEEIKETLQLVPEVEKLEHDVDVLETALLKKIFEHESAIGGAGVCHLMGLVERIGGIADKSASAADRLRSMILRRLEHHHHHH', 'soluble on expression in E. coli', 'soluble');

---

# test: soluble on expression in E. coli; label from the status in PepcDB or PDB records
measured.property: soluble on expression in E. coli

INSERT INTO results (sequence_input, readout_value) VALUES
  ('IFIGNLDPEIDEKLLYDTFSAFGVILQTPKIMRDPDTGNSKGYAFINFASFDASDAAIEAMNGQYLCNRPITVSYAFKKDSKG', 'soluble'),
  ('MARDVKKRGKPAYTNRRNRQKYLKKKDNKKKLSKSAVPIIKYTWDETKTPRENVRDMGIAFNPNDAVPIAEHRKEIIDAEPIDGVSIVVPKPEKKVTGRKKNEKQAAHIISNLEQQVKEEEEARAGQDRKFRLFHRETELCVYMLARHGEDFQAMTRDPKNLWQYTPKQWAKKIRTHKESEMCKFLETA', 'not soluble'),
  ('MFQISELANYRLCKRCSGRIFAYHYHGISNLERGEYLQFAIGCETGNPDFSFVDSKNCDICHGIFDRFDDIYDLVAKKVGDAQYSTFLVGSVFPQDTIRMEEDIQKKFGSSGESIKKEFNREFGKYFSARTGKEYSQDNPDLTILVNAEYLFVDVKIRSIYIYGKYRKFRRDMPQTRWIHRPNGDTVESVIGSVFTRYAGGTNYYLHGSGREDVDVRMLGNGREFVLEVENPRYREFELDPVVKEINTSGKGVEIFDVKFSSHDAVSEVKLEKHRKVYDALVVSDRPIDESRLLEACINLTGKNIYQRTPLRVAQRRSDLVRTRRIDQVDLVGVSANEAEILISAEAGTYIKELVNGDGGRTRPSLSEMYGSPLNVKELDVIKICRGEDLEHHHHHH', 'soluble'),
  ('SDSPEQESADDALKRIVDGFQHFRREVFPEQQALFKKLANSQRPRAMFITCADSRIVPELITQSSPGDLFVTRNVGNVVPPYGQMNGGVSTAIEYAVLALGVHHIIVCGHSDCGAMRAVLDPQTLERMPTVKAWLRHAEVARTVVADNCDCGASHDTLGVLTEENVVAQLDHLRTHPSVASRLASGQLFIHGWVYDIESAQIRAYDAKQGRFLPLDGEHPVPMATPAPRYLSS', 'not soluble'),
  ('MGSDKIHHHHHHMEMMRDAVQFEPADSRVTRPSFWSSLPERWTSDVEETLVCCHVRQETHDVKSFFFHSPDGRAFVFEPGQFITLELEIEGETINRCYTISSSPARPHTLSITVKRVPGGKVSNWLHDNVRPGTPIRVLGPAGEFTCARHPARKYLFLSAGSGITPLMSMSRAHHDLGEDRDIVFVHSARTPDDIIFSRELDLIASNHANFRTSFVCESVGARTSWPGVTGFLSLPLLKLIAPDFMEREIFTCGPAPYMKAVRDLLDEGGFDRRRYHEESFSFETLTADGPADAPAPDTGVASAPHGIADMAAFSVSFAKSRREIVCSSGQHVLEAARQSGVRLPASCTQGMCGTCKVKLVSGQVEMKHNGGIRQREIDQGMVLLCCSKPLSDLVIDK', 'not soluble'),
  ('MGSDKIHHHHHHMSIAIIIATHGVAAEQLLKTTEMLIGEQENVATIDFVSGENAETIMTKYQEKLSTTLAHCDEVLFLVDTWGGSPFNAANRVIGDNTNMDIVTGVNVPMLVETFMARDDNPSLQELVSIALETGRAGVRALKYEEKSAETTALSQPVPEQPQIAVKQQEGNLIVGLARIDDRLIHGQVATRWTKESRVTRIVVVNDDVAKDQVRSTMLKSVAPPGVTAHVVNIEKMIRVYNNPEYANERMMLLFTNPTDVLRLLEAGVDMKSINVGGMAYKDGKKMITSAVAVDDKDIAAFKAIDAMGIELDVRKVSNDSRQYMMDLLKKNNLI', 'not soluble'),
  ('MSLENIIARRYAKAIASRADINDFYQNLCILNSAFVLPKFKNIIESNEIKKERKMEFLDSFFDIKNSSFQNFLRLLIENSRLECIPQIVKELERQKAFKENIFVGIVYSKEKLSQENLKDLEVKLNKKFDANIKLNNKISQDDSVKIELEELGYELSFSMKALQNKLNEYILKIEGHHHHHH', 'not soluble'),
  ('MAHHHHHHMGELFSIKNLFICSNERSVEELRTAMEGLLKKERAEGAGGGEKEAKEETHPGGKKYEMIKDYLDANKNNVLHFAIYGNNMNNVKFIIENTNLINSINSEEQNGLIISVLNRNTQISKYLIEQNIDYNQKDKHKANALLYSLITQNYEIFNLLMEKKNIDINVNSFEKGNLLSVSIFERNIHVLKKLFNKFICPFVEGSVYPHPLLYITYSSDNELLFLYLTYCMYYCTKDDALYKINTANFDHSREEIYVDLDHRQVICSIWDNSTYDLSAFKDVLNMTDEDGTPLCSTCVNNGNSLGKNIFDYFSAPS', 'not soluble'),
  ('IGDFHYGIGASMSYLNTEVVNVNQAYQEYDYLYTKGNRIGQMYGLEAIGFFNSQQEINNSPQQTFSDVAPGDVKYKDQNGDNRIDEKDIVKMFGSSVPRFYFGFNLNFSYKRLELSADFQGMTGVTVSLLNSPLYSPLVSNGNISNTFLNEEISWTPENKTNATMPRLTTQENLNNYRASSLWYRDGSFLKLRNLLVAYTFPKSQTRFADLKVFVQGTNLFSLDNIHFADPEQLGIAYPSTRSYWAGIKLNF', 'not soluble'),
  ('NVLYENQKQIANQFNKAISQIQESLTTTSTALGKLQDVVNQNAQALNTLVKQLSSNFGAISSVLNDILSRLDKVEAE', 'soluble'),
  ('GPLGSMDSPPEGYRRNVGICLMNNDKKIFAASRLDIPDAWQMPQGGIDEGEDPRNAAIRELREETGVTSAEVIAEVPYWLTYDFPPKVREKLNIQWGSDWKGQAQKWFLFKFTGQDQEINLLGDGSEKPEFGEWSWVTPEQLIDLTVEFKKPVYKEVLSVFAPHL', 'soluble'),
  ('SFFMGEKTFYHIKKENLILKARMFGKITSLGISGFVMQGTNCLVQIVCNKMLFMYGGDMYVGIMTVINSVREILSVPGSTLGSGAQPVLGYNYGAKQYERVRKA', 'not soluble');

---

# test: soluble on expression in E. coli; label from the status in PepcDB or PDB records
measured.property: soluble on expression in E. coli

INSERT INTO results (sequence_input, measured_property, readout_value) VALUES
  ('MIRISDAAQAHFAKLLANQEEGTQIRVFVINPGTPNAECGVSYCPPDAVEATDTALKFDLLTAYVDELSAPYLEDAEIDFVTDQLGSQLTLKAPNAKMRKVADDAPLMERVEYMLQSQINPQLAGHGGRVSLMEITEDGYAILQFGGGCNGCSMVDVTLKEGIEKQLLNEFPELKGVRDLTEHQRGEHSYY', 'soluble on expression in E. coli', 'soluble'),
  ('MSLIFLDYDGTLVPIIMNPEESYADAGLLSLISDLKERFDTYIVTGRSPEEISRFLPLDINMICYHGACSKINGQIVYNNGSDRFLGVFDRIYEDTRSWVSDFPGLRIYRKNLAVLYHLGLMGADMKPKLRSRIEEIARIFGVETYYGKMIIELRVPGVNKGSAIRSVRGERPAIIAGDDATDEAAFEANDDALTIKVGEGETHAKFHVADYIEMRKILKFIEMLGVQKKQEGHHHHHH', 'soluble on expression in E. coli', 'soluble');

---

# test: soluble on expression in E. coli; label from the status in PepcDB or PDB records
measured.property: soluble on expression in E. coli

INSERT INTO measurements (sequence_input, readout_value) VALUES
  ('MGSDKIHHHHHHGLDRWMSWKTAPYIYDELQDLPYRQVGVVLGTAKYYRTGVINQYYRYRIQGALNAYNSGKVNYLLLSGDNALQSYNEPMTMRRDLIKGGVDPADIVLDYAGFRTLDSIVRTRKVFDTNDFIIITQRFHCERALFIALHMGIQAQCYAVPSPKDMWSVRLREFGARFGALADLYIFKREPRFLGPLIPIPAQQHDVPDDAQSYPAVTPEQLLELQKEK', 'not soluble'),
  ('MEFGASFAYRRIDAHVEATLQEAAQVLEKLVIERDAESAITVASQGTPDAISITQAAHETISIDSILRSSKQPKATIRTPRDSNKNRKLTFPPARIGFKSEQLETCDSGITDSTIDQDPPTPDSLFPSAIYIPAKQKPQMTVSISATTASSCSNKSLYRKHIEKLAIEPLEDIKHLKCRGLKKSKPDDLFPKATYDAGTGKPKMALSPSSMVSVDLSYASTTAKSNSLAYQPMEFVSSDGRVKLWLQPLEKQKKKNSEKSKKRERCIDDAPIPPKQLQSSTKLNIENRTKFSTNLSIGDHVIDLSGILNGSMKKKNLAKLVINGQSYSI', 'not soluble'),
  ('NLRSIIESPSFKNAESKLTVAMGYRINNEPLLMDIAKTPHALIAGATGSGKSVCINSILMSLLYKNHPEELRLLLIDPKMVELAPYNGLPHLVAPVITDVKAATQSLKWAVEEMERRYKLFAHYHVRNITAFNKKAPYDERMPKIVIVIDELADLMMMAPQEVEQSIARIAQKARACGIHMLVATQRPSV', 'not soluble');
